settings: in acetonitrile, 278.15 K
measure_name: solubility (mole fraction)
Number, no unit, nothing else.

Asked: Any idea what its solubility (mole fraction) is? The compound is O=C(O)COc1ccc(Cl)cc1Cl
Given back: 0.0178

---

conditions: in n-propanol, 318.15 K
measure_name: solubility (mole fraction)

Asked: Any idea what its solubility (mole fraction) is? The compound is O=C(O)COc1ccc(Cl)cc1Cl
Given back: 0.207

---

settings: in isobutanol, 278.15 K
measure_name: solubility (mole fraction)
Number, no unit, nothing else.

Asked: Any idea what its solubility (mole fraction) is? The molecule is O=C(O)COc1ccc(Cl)cc1Cl
Given back: 0.0317

---

conditions: in ethanol, 308.15 K
measure_name: solubility (mole fraction)
Number, no unit, nothing else.

Asked: Any idea what its solubility (mole fraction) is? The molecule is O=C(O)COc1ccc(Cl)cc1Cl
Given back: 0.192

---

conditions: in isobutyl acetate, 278.15 K
measure_name: solubility (mole fraction)
Number, no unit, nothing else.

Asked: Any idea what its solubility (mole fraction) is? The compound is O=C(O)COc1ccc(Cl)cc1Cl
Given back: 0.0365

---

conditions: in ethyl acetate, 293.15 K
measure_name: solubility (mole fraction)
Number, no unit, nothing else.

Asked: Any idea what its solubility (mole fraction) is? The compound is O=C(O)COc1ccc(Cl)cc1Cl
Given back: 0.0798

---

settings: in ethyl acetate, 308.15 K
measure_name: solubility (mole fraction)
Number, no unit, nothing else.

Asked: Any idea what its solubility (mole fraction) is? The compound is O=C(O)COc1ccc(Cl)cc1Cl
Given back: 0.113

---

conditions: in isobutanol, 323.15 K
measure_name: solubility (mole fraction)
Number, no unit, nothing else.

Asked: Any idea what its solubility (mole fraction) is? The compound is O=C(O)COc1ccc(Cl)cc1Cl
Given back: 0.19

---

conditions: in methyl acetate, 293.15 K
measure_name: solubility (mole fraction)
Number, no unit, nothing else.

Asked: Any idea what its solubility (mole fraction) is? The molecule is O=C(O)COc1ccc(Cl)cc1Cl
Given back: 0.0846

---

conditions: in sec-butanol, 303.15 K
measure_name: solubility (mole fraction)

Asked: Any idea what its solubility (mole fraction) is? The compound is O=C(O)COc1ccc(Cl)cc1Cl
Given back: 0.117

---

details: in isobutanol, 293.15 K
measure_name: solubility (mole fraction)
Number, no unit, nothing else.

Asked: Any idea what its solubility (mole fraction) is? The compound is O=C(O)COc1ccc(Cl)cc1Cl
Given back: 0.0627

---

conditions: in isopropanol, 318.15 K
measure_name: solubility (mole fraction)
Number, no unit, nothing else.

Asked: Any idea what its solubility (mole fraction) is? The compound is O=C(O)COc1ccc(Cl)cc1Cl
Given back: 0.176

---

settings: in MTBE, 288.15 K
measure_name: solubility (mole fraction)
Number, no unit, nothing else.

Asked: Any idea what its solubility (mole fraction) is? The compound is O=C(O)COc1ccc(Cl)cc1Cl
Given back: 0.106

---

conditions: in n-butanol, 318.15 K
measure_name: solubility (mole fraction)
Number, no unit, nothing else.

Asked: Any idea what its solubility (mole fraction) is? The compound is O=C(O)COc1ccc(Cl)cc1Cl
Given back: 0.231

---

conditions: in methyl acetate, 323.15 K
measure_name: solubility (mole fraction)
Number, no unit, nothing else.

Asked: Any idea what its solubility (mole fraction) is? The compound is O=C(O)COc1ccc(Cl)cc1Cl
Given back: 0.16
